molecular target: Voltage-gated inwardly rectifying potassium channel KCNH2 (Homo sapiens); test: Inhibition of hERG by patch clamp assay
Sequence (Q12809 whole entry): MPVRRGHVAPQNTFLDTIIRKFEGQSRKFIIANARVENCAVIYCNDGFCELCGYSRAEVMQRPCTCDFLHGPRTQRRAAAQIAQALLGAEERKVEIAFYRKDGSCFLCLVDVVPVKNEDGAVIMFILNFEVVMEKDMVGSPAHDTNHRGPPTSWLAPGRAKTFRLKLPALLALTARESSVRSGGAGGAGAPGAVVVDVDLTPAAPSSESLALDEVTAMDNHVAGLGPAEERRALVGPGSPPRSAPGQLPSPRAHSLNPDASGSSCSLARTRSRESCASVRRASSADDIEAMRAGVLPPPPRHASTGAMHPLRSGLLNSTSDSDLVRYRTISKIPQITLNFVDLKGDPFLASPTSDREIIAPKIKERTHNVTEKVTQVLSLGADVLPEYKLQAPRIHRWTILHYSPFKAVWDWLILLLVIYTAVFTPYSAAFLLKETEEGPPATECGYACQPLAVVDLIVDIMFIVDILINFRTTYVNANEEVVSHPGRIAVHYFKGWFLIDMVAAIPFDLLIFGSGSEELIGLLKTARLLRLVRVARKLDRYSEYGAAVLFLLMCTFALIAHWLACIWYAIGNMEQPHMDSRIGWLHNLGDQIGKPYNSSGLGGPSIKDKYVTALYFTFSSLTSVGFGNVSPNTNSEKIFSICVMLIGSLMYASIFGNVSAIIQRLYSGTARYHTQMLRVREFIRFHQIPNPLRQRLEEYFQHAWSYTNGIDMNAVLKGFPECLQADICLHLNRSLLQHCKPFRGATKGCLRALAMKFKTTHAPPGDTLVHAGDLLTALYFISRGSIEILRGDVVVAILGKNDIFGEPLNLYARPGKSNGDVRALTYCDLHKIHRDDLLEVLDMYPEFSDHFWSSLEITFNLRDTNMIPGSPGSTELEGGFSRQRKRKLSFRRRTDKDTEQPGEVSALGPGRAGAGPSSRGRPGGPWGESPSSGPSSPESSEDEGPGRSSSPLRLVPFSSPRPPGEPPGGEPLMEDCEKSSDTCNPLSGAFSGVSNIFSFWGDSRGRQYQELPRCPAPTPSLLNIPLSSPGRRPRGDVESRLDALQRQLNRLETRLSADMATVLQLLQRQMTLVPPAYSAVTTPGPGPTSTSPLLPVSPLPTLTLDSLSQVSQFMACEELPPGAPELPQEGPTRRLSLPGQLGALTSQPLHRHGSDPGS
For each of the molecules below, state its pIC50.
Keep in mind that pIC50 stands for -log10 of concentration in molar terms.

Quick one: pIC50 for CCC[C@@H](C)Nc1nc(N)nc2cnn(Cc3ccc(CNC4CCOCC4)cc3OC)c12 ? 4.52

Item: CCCCNc1nc(N)nc2cnn(Cc3ccc(CNC4CCC4)cc3OC)c12 4.73

* * *

test: AUClast in Balb/c mouse at […], iv measured after 2 hrs by LC-MS analysis; type: ADME, organism-based; design: time 2 hrs, dose 0.15 mg/kg, route iv; settings: in vivo
reported.endpoint: AUC(0-t) at 2 h (nM·h)
Your answer is read as nM·h, so omit the unit and give the number.

Quick one: AUC(0-t) at 2 h for CCC[C@@H](CCO)Nc1nc(N)nc2cnn(Cc3ccc(CNC4CCOCC4)cc3OC)c12 ? 75

Values were extracted from ChEMBL document CHEMBL5357068.
